Reported kon is given for each of the following binders.
# system.tested: T1, NativeRPtag(large)_with_Tags_and_Cys (Thermoanaerobacter tengcongensis)
# T1 construct: Unlabeled in anisotropy assays; coupled through the engineered N-terminal Cys to SulfoLink agarose or maleimide plates in column, pull-down and ELISA assays
# T1 chain: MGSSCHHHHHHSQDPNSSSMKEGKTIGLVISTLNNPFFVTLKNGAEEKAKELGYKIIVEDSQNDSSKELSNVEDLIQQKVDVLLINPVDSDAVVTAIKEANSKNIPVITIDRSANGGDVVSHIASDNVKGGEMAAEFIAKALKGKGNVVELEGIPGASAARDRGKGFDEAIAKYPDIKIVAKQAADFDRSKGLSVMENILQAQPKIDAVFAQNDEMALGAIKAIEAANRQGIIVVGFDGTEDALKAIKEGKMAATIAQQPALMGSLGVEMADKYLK
# experimental.details: calculated from koff and Kd
No end group written: not given here. *: point of attachment. RhodamineB = CCN(CC)c1ccc2c(-c3ccccc3C(=O)*)c3ccc(=[N+](CC)CC)cc-3oc2c1
Your answer is read as M⁻¹ s⁻¹, so omit the unit and give the number.

[
  {
    "binder": "RhodamineB-PNFIPAELKLITKENVQ [RPtag(small) Nd4]",
    "readout.number": "1.57e+06"
  },
  {
    "binder": "RhodamineB-GEAIPNFIPAELKLITKENVQ [RPtag(small) k3a]",
    "readout.number": 183000
  },
  {
    "binder": "RhodamineB-GEKIPNFIPAELKLITKE [RPtag(small) Cd3]",
    "readout.number": "1.83e+06"
  },
  {
    "binder": "RhodamineB-GEKAPNFIPAELKLITKENVQ [RPtag(small) i4a]",
    "readout.number": 400000
  },
  {
    "binder": "RhodamineB-GEKIPNFIPAELKLITKANVQ [RPtag(small) e18a]",
    "readout.number": "2.67e+06"
  }
]

Report kon for RhodamineB-IPNFIPAELKLITKENVQ [RPtag(small) Nd3] please.
1.47e+06

Report kon for RhodamineB-KIANFIPAELKLITKE [RPtag(small) Nd2, Cd3, p5a] please.
4.33e+06
